- Measurement target: T1, RSV postfusion F (postF), subtype A (respiratory syncytial virus, subtype A, UniProt P03420 26-513)
- T1 construct: also called F ΔFP; Postfusion subtype A
- Method: BLI, IgG

Binder: ADI-21059 (antibody, V domains shown) VH: QVQLVQSGAEVKRPGDSLKISCKGSGYSFTTSWIGWVRQVPGKGLEWMGIIYPGDSNTVYGPSLQGQVTISADKSTNTAYLQWSSLKASDTAMYYCARRDGGTDYLSDAFDIWGQGTFVTVSS VL: DIQMTQSPSSLSASVGDRVTITCRTSQNIVIYLNWYQQKPGKAPKLLIFAASSLPSGVPSRFSGSGSGTDFTLTISSLQPEDVATYYCQQSYNTPGTFGQGTKVDIK
binding result: no binding
//
Binder: ADI-14410 (antibody, V domains shown, also called Ab 76) VH: QVQLQQWGAGLLKPSETLSLTCAIYSGSFSGYYWSWIRQPPGKGLEWIGQINYSGSAYYTPSLKSRVTISVDTSKNQFSLKLSSVTAADTAVYYCARVRITMVQGAIVPCAIDVWGQGTTVTVSS VL: SYELTQPPSASGTPGQRVTISCSGSSSNIESNFVYWYQQLPGTAPKLLIHRNDQRPSGVPDRFSGSKSGTSASLAISGLRSEDEADYSCAAWDDSLSGVVFGGGTKVTVL
binding result: no binding
//
Binder: ADI-21010 (antibody, V domains shown) VH: EVQLVESGGGVVQPGRSLRLSCAASGFSFSTYGMHWVRQAPGKGLEWVGVIWYDETTKYYADSVKGRFSISRDNSKNMVYVQMNSLRADDTALYYCAREVWGGVFDIWGQGTTVTVSS VL: DIQMTQSPATLSASVGDRVTITCRASQNIVTWLAWYQQKPGKAPNLLIYKASSLESGVPSRFSGSGSGTEFTLTISSLQPDDFATYYCQHYNSYSGAFGQGTKVDIK
binding result: no binding
